Below, each entry is listed with its recorded concentration at 50 min.
EXPERIMENTAL DETAILS: Mouse blood levels after single intramuscular injection
Assay type: in vivo, mice
PROTOCOL CONDITIONS: in vivo, im, 20 mg/kg
Report as a plain number; the unit ng/mL is understood.

Worked cases, answers included:
> print(dat)
                                   compound  measured.result
1  CO/N=C(\C(=O)NC1C(=O)N2C(C(=O)[O-])=C(C[n+]3ccc4scnc4c3)CS[C@H]12)c1csc(N)n1 (stereo partly shown)             6900
2  CO/N=C(\C(=O)NC1C(=O)N2C(C(=O)[O-])=C(C[n+]3ccc4sc(NC(=O)CN)nc4c3)CS[C@H]12)c1csc(N)n1 (stereo partly shown)             9900
3  Nc1nc(/C(=N/OCC(=O)O)C(=O)NC2C(=O)N3C(C(=O)[O-])=C(C[n+]4ccc5sc(N)nc5c4)CS[C@H]23)cs1 (stereo partly shown)             7600
4  CO/N=C(\C(=O)NC1C(=O)N2C(C(=O)[O-])=C(C[n+]3ccc4sc(C=O)nc4c3)CSC12)c1csc(N)n1 (stereo not shown)             3900
5  CO/N=C(\C(=O)NC1C(=O)N2C(C(=O)[O-])=C(C[n+]3ccc4sc(C(N)=O)nc4c3)CS[C@H]12)c1csc(N)n1 (stereo partly shown)            11000
6  C=CCO/N=C(\C(=O)NC1C(=O)N2C(C(=O)[O-])=C(C[n+]3ccc4scnc4c3)CSC12)c1csc(N)n1 (stereo not shown)             5800
7  Nc1nc(/C(=N/OC2(C(=O)O)CCC2)C(=O)NC2C(=O)N3C(C(=O)[O-])=C(C[n+]4ccc5sc(N)nc5c4)CS[C@H]23)cs1 (stereo partly shown)             5200
8  CO/N=C(\C(=O)NC1C(=O)N2C(C(=O)[O-])=C(C[n+]3ccc4sc(SC)nc4c3)CSC12)c1csc(N)n1 (stereo not shown)             2400

Query :: Reported concentration at 50 min for CO/N=C(\C(=O)NC1C(=O)N2C(C(=O)[O-])=C(C[n+]3ccc4sc(N(C)C)nc4c3)CS[C@H]12)c1csc(N)n1 (stereo partly shown) : what is it?
Result :: 3400

Query :: Reported concentration at 50 min for CO/N=C(\C(=O)NC1C(=O)N2C(C(=O)[O-])=C(C[n+]3ccc4sc(NC(C)=O)nc4c3)CS[C@H]12)c1csc(N)n1 (stereo partly shown) : what is it?
Result :: 6800

Query :: Reported concentration at 50 min for C#CCO/N=C(\C(=O)NC1C(=O)N2C(C(=O)[O-])=C(C[n+]3ccc4sc(N)nc4c3)CS[C@H]12)c1csc(N)n1 (stereo partly shown) : what is it?
Result :: 3600

Query :: Reported concentration at 50 min for CO/N=C(\C(=O)NC1C(=O)N2C(C(=O)[O-])=C(C[n+]3ccc4sc(NC(=O)OC)nc4c3)CS[C@H]12)c1csc(N)n1 (stereo partly shown) : what is it?
Result :: 4600

Query :: Reported concentration at 50 min for CO/N=C(\C(=O)NC1C(=O)N2C(C(=O)[O-])=C(C[n+]3ccc4sc(NC(=O)N5CCCC5)nc4c3)CS[C@H]12)c1csc(N)n1 (stereo partly shown) : what is it?
Result :: 6600

* * *

Tested on: Ps. aeruginosa (6 strains)
EXPERIMENTAL DETAILS: MIC, two-fold serial agar dilution, group (G-)-III
Format: cell-based
PROTOCOL CONDITIONS: Pseudomonas aeruginosa; (G-)-III, 6 strains, Mueller-Hinton agar; read-out: Geometric Mean of MIC
Below, each entry is listed with its recorded MIC.
Report as a plain number; the unit µg/mL is understood.

Worked cases, answers included:
> print(dat)
                                   compound                study.system  measured.result
1  CO/N=C(\C(=O)NC1C(=O)N2C(C(=O)[O-])=C(C[n+]3ccc4sc(C)nc4c3)CSC12)c1csc(N)n1 (centres unmarked)  Ps. aeruginosa (6 strains)              2.3
2  CO/N=C(\C(=O)NC1C(=O)N2C(C(=O)[O-])=C(C[n+]3ccc4sc(NC(=O)N5CCCC5)nc4c3)CS[C@H]12)c1csc(N)n1 (some centres unmarked)  Ps. aeruginosa (6 strains)               34
3  CO/N=C(\C(=O)NC1C(=O)N2C(C(=O)[O-])=C(C[n+]3ccc4sc(C(N)=O)nc4c3)CS[C@H]12)c1csc(N)n1 (some centres unmarked)  Ps. aeruginosa (6 strains)              2.8
4  CO/N=C(\C(=O)NC1C(=O)N2C(C(=O)[O-])=C(C[n+]3ccc4sc(NC(=O)CN)nc4c3)CS[C@H]12)c1csc(N)n1 (some centres unmarked)  Ps. aeruginosa (6 strains)               10

From here, focus on the item given below.
Query :: Reported MIC for CO/N=C(\C(=O)NC1C(=O)N2C(C(=O)[O-])=C(C[n+]3ccc4sc(C(=O)O)nc4c3)CS[C@H]12)c1csc(N)n1 (some centres unmarked) : what is it?
Result :: 5.7

* * *

Below, each entry is listed with its recorded ED50.
Test system: P. aeruginosa A9843
EXPERIMENTAL DETAILS: Median protective dose in infected mice
Type: in vivo
PROTOCOL CONDITIONS: Pseudomonas aeruginosa, im, immediately after intraperitoneal challenge, read-out: PD50
Report as a plain number; the unit mg/kg is understood.

Query :: Reported ED50 for C#CCO/N=C(\C(=O)NC1C(=O)N2C(C(=O)[O-])=C(C[n+]3ccc4sc(N)nc4c3)CS[C@H]12)c1csc(N)n1 (stereo partly drawn) : what is it?
Result :: 3.3

* * *

EXPERIMENTAL DETAILS: Mouse blood levels after single intramuscular injection
Format: in vivo, mice
PROTOCOL CONDITIONS: in vivo, im, 20 mg/kg
MEASURED METRIC: AUC (ng·h/mL)
Report as a plain number; the unit ng·h/mL is understood.

Worked cases, answers included:
> print(dat)
                                   molecule  display.unit  measured.result
1  C#CCO/N=C(\C(=O)NC1C(=O)N2C(C(=O)[O-])=C(C[n+]3ccc4sc(N)nc4c3)CS[C@H]12)c1csc(N)n1 (stereo partly drawn)       ng·h/mL             9100
2  CO/N=C(\C(=O)NC1C(=O)N2C(C(=O)[O-])=C(C[n+]3ccc4sc(NC(=O)N5CCCC5)nc4c3)CS[C@H]12)c1csc(N)n1 (stereo partly drawn)       ng·h/mL            13000

From here, focus on the item given below.
Query :: Reported AUC for Cc1nc2c[n+](CC3=C(C(=O)[O-])N4C(=O)C(NC(=O)/C(=N\OC5(C(=O)O)CCC5)c5csc(N)n5)[C@H]4SC3)ccc2s1 (stereo partly drawn) : what is it?
Result :: 7100

* * *

Below, each entry is listed with its recorded concentration at 2 h.
EXPERIMENTAL DETAILS: Mouse blood levels after single intramuscular injection
Assay type: in vivo, mice
PROTOCOL CONDITIONS: in vivo, im, 20 mg/kg
Description: The absorption of some of the preferred compounds were determined in mice following a single intramuscular injection of the test compound (dissolved in 0.1M phosphate buffer; pH 7) at a dosage of 20 mg/kg. Blood samples were collected from the orbital sinuses into heparinized capillary tubes and assayed in Nutrient Agar (pH 6.6) using E. coli Ess-22-31 as the test organism. […]
Report as a plain number; the unit ng/mL is understood.

Worked cases, answers included:
> print(dat)
                                   molecule  display.unit  measured.result
1  Nc1nc(/C(=N/OC2(C(=O)O)CCC2)C(=O)NC2C(=O)N3C(C(=O)[O-])=C(C[n+]4ccc5scnc5c4)CS[C@H]23)cs1 (stereo partly drawn) [Ie]         ng/mL              150
2  CO/N=C(\C(=O)NC1C(=O)N2C(C(=O)[O-])=C(C[n+]3ccc4sc(NC(=O)CN)nc4c3)CS[C@H]12)c1csc(N)n1 (stereo partly drawn) [Iq]         ng/mL             1500
3  CO/N=C(\C(=O)NC1C(=O)N2C(C(=O)[O-])=C(C[n+]3ccc4sc(C)nc4c3)CSC12)c1csc(N)n1 (stereo not drawn) [Ih]         ng/mL              130
4  C=CCO/N=C(\C(=O)NC1C(=O)N2C(C(=O)[O-])=C(C[n+]3ccc4scnc4c3)CSC12)c1csc(N)n1 (stereo not drawn) [Ic]         ng/mL             1300

From here, focus on the item given below.
Query :: Reported concentration at 2 h for CO/N=C(\C(=O)NC1C(=O)N2C(C(=O)[O-])=C(C[n+]3ccc4scnc4c3)CS[C@H]12)c1csc(N)n1 (stereo partly drawn) [Ia] : what is it?
Result :: 2100

Data origin, for the record: patent US4500526A
